Target: human CCR8 (human) (UniProt P51685)
Sequence (P51685 whole entry): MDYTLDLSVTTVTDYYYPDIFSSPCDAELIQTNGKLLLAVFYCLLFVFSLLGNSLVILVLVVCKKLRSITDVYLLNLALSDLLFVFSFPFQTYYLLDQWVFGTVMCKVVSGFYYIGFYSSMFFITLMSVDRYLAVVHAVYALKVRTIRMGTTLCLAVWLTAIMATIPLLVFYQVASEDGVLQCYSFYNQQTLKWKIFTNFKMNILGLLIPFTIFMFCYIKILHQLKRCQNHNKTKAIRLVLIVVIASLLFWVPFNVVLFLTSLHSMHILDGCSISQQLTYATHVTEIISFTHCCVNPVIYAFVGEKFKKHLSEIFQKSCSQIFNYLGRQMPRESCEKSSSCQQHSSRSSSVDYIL
Assay: cell-based or functional assay
Give measured IC50 (n.d.: 10 nM or more) for each item. Keep answers brief.

Below: 2 binders and their reported IC50 (n.d.: 10 nM or more).
h10A11 IGKV4-1/IGHV3-73 A33V (antibody, name in Kabat numbering, V domains shown) VH: EVQLVESGGGLVQPGGSLKLSCAASGFAFNTYVLYWVRQASGKGLEWVGRIRSKSNNYATYYADSVKDRFTISRDDSKNTAYLQMNSLKTEDTAVYYCTRARFYYSDYGYAMDYWGQGTLVTVSS VL: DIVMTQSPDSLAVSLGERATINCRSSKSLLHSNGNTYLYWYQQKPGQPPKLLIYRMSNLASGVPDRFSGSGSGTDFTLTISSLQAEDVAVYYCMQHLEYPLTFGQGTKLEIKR	> 0.01 µM
h10A11 IGKV4-1/IGHV3-73 R52K (antibody, name in Kabat numbering, V domains shown) VH: EVQLVESGGGLVQPGGSLKLSCAASGFAFNTYALYWVRQASGKGLEWVGRIKSKSNNYATYYADSVKDRFTISRDDSKNTAYLQMNSLKTEDTAVYYCTRARFYYSDYGYAMDYWGQGTLVTVSS VL: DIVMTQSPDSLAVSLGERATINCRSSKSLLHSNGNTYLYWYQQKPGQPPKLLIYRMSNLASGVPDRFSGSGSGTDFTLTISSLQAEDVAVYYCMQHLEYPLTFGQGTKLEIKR	> 0.01 µM

**Q:** Quick check: IC50 (n.d.: 10 nM or more) of h10A11 IGKV4-1/IGHV3-73 D101E (antibody, name in Kabat numbering, V domains shown) VH: EVQLVESGGGLVQPGGSLKLSCAASGFAFNTYALYWVRQASGKGLEWVGRIRSKSNNYATYYADSVKDRFTISRDDSKNTAYLQMNSLKTEDTAVYYCTRARFYYSDYGYAMEYWGQGTLVTVSS VL: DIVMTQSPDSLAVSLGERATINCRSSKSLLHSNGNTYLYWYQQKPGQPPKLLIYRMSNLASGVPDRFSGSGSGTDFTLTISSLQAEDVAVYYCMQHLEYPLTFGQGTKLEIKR ?
**A:** > 0.01 µM
